# systemName: AmpC (P99) (Enterobacter cloacae)
# protocol: biochemical
Reported pIC50 values follow for various compounds
Hey, just a heads up that pIC50 is the negative log base 10 of the concentration in molar.

O=C1N2CC(n3cc(CO)cn3)=CC(C2)N1OS(=O)(=O)[O-].[Na+] (centres unmarked) | 7.72
O=C(Nc1cc[nH]n1)c1ccn(C2=CC3CN(C2)C(=O)N3OS(=O)(=O)[O-])n1.[Na+] (centres unmarked) | 7.96
O=C(NCCN1CCOCC1)c1ccn(C2=CC3CN(C2)C(=O)N3OS(=O)(=O)O)n1 (centres unmarked) | 7.37
NC(=O)CONC(=O)c1ccn(C2=CC3CN(C2)C(=O)N3OS(=O)(=O)[O-])n1.[Na+] (centres unmarked) | 7.80
O=C1N2CC(n3ccc([C@H](O)CO)n3)=CC(C2)N1OS(=O)(=O)[O-].[Na+] (some centres unmarked) | 7.54

Query block: Annotate the compound O=C(N[C@@H]1CCNC1)c1ccn(C2=CC3CN(C2)C(=O)N3OS(=O)(=O)O)n1 (some centres unmarked) with its measured pIC50.
Result block: 7.62

Query block: Identify pIC50 associated with the compound O=C(NC1CCNCC1)c1ccn(C2=CC3CN(C2)C(=O)N3OS(=O)(=O)O)n1 (centres unmarked)
Result block: 7.54

Query block: Tell me its pIC50 given O=C1N2CC(n3cncn3)=CC(C2)N1OS(=O)(=O)[O-].[Na+] (centres unmarked) as the entry.
Result block: 7.80

Query block: Fill in pIC50 for record O=C(Nc1nncs1)c1ccn(C2=CC3CN(C2)C(=O)N3OS(=O)(=O)[O-])n1.[Na+] (centres unmarked)
Result block: 7.60

Query block: Give a short answer stating reported pIC50 for O=C1N2CC(n3cc(C(F)(F)F)cn3)=CC(C2)N1OS(=O)(=O)[O-].[Na+] (centres unmarked) .
Result block: 7.77

Query block: Find the measured pIC50 of N#Cc1cnn(C2=CC3CN(C2)C(=O)N3OS(=O)(=O)[O-])c1.[Na+] (centres unmarked) and report it.
Result block: 8.12

Query block: Give me measured pIC50, please, for this compound: NS(=O)(=O)c1cnn(C2=CC3CN(C2)C(=O)N3OS(=O)(=O)[O-])c1.[Na+] (centres unmarked)
Result block: 7.89

Query block: Write down pIC50 measured for item O=C1N2CC(n3ccsc3=O)=CC(C2)N1OS(=O)(=O)[O-].[Na+] (centres unmarked)
Result block: 7.52

Query block: Indicate its recorded pIC50; the compound in question is NCCc1ccn(C2=CC3CN(C2)C(=O)N3OS(=O)(=O)O)n1 (centres unmarked)
Result block: 7.66

Query block: Specify measured pIC50 for NCCc1cnn(C2=CC3CN(C2)C(=O)N3OS(=O)(=O)O)c1 (centres unmarked) .
Result block: 7.44

Query block: Report pIC50, nothing else, for this compound: CC(=NOCCN)c1ccn(C2=CC3CN(C2)C(=O)N3OS(=O)(=O)O)n1 (mixture of isomers)
Result block: 7.60

Query block: Tell us which pIC50 value is on record for O=C(NOCCO)c1ccn(C2=CC3CN(C2)C(=O)N3OS(=O)(=O)[O-])n1.[Na+] (centres unmarked)
Result block: 7.49

* * *

The next entries give measured pIC50 for TEM-1 (Escherichia coli).
For clarity, pIC50 is expressed as the negative log10 of concentration in mol/L.

Query block: Consider the compound NCCONC(=O)c1cn(C2=CC3CN(C2)C(=O)N3OS(=O)(=O)O)nn1 (centres unmarked) [Example 63] . State its measured pIC50.
Result block: 9.07

Query block: Name the recorded pIC50 of the item O=C1N2CC(n3nccn3)=CC(C2)N1OS(=O)(=O)O (centres unmarked) [Example 3] in your answer.
Result block: 9.14

Query block: Determine its reported pIC50: O=C(Nc1ccn(C2=CC3CN(C2)C(=O)N3OS(=O)(=O)[O-])n1)c1nccs1.[Na+] (centres unmarked) [Example 34]
Result block: 9.00

* * *

# System: E. coli 190317
# protocol: MIC of compound alone, broth microdilution
# Assay type: cell-based
# protocolConditions: Escherichia coli; strain 190317; compound alone; read-out: MIC compounds of the invention alone
recordedMetric: MIC (µg/mL)
Report the figure in µg/mL without appending any unit label.

CC(=O)c1ccn(C2=CC3CN(C2)C(=O)N3OS(=O)(=O)[O-])n1.[Na+] (centres unmarked) [Example 28] | 16
O=C1N2CC(n3ccc(F)n3)=CC(C2)N1OS(=O)(=O)[O-].[Na+] (centres unmarked) [Example 18] | 1
O=C(NOCCO)c1ccn(C2=CC3CN(C2)C(=O)N3OS(=O)(=O)[O-])n1.[Na+] (centres unmarked) [Example 47] | 8
O=C(N[C@@H]1CCNC1)c1ccn(C2=CC3CN(C2)C(=O)N3OS(=O)(=O)O)n1 (some centres unmarked) [Example 83] | 2
O=C(NCCO)c1ccn(C2=CC3CN(C2)C(=O)N3OS(=O)(=O)[O-])n1.[Na+] (centres unmarked) [Example 11] | 16
NC(=O)c1ccn(C2=CC3CN(C2)C(=O)N3OS(=O)(=O)[O-])n1.[Na+] (centres unmarked) [Example 19] | 4
NCCc1cnn(C2=CC3CN(C2)C(=O)N3OS(=O)(=O)O)c1 (centres unmarked) [Example 41] | 2
O=C1N2CC(n3cc(CNCCO)nn3)=CC(C2)N1OS(=O)(=O)O (centres unmarked) [Example 67] | 2
O=C1N2CC(n3cc(N4CCNCC4)cn3)=CC(C2)N1OS(=O)(=O)O (centres unmarked) [Example 42] | 4
Nc1ncc(C(=O)Nc2ccn(C3=CC4CN(C3)C(=O)N4OS(=O)(=O)[O-])n2)s1.[Na+] (centres unmarked) [Example 13] | 32

Query block: Tell us which MIC value is on record for NCCONC(=O)c1cn(C2=CC3CN(C2)C(=O)N3OS(=O)(=O)O)nn1 (centres unmarked) [Example 63]
Result block: 8

* * *

# systemName: SHV-1 (Klebsiella pneumoniae, UniProt P0AD64)
Recorded IC50 determines the label; the label ranges are label 0: < 3 nM; label 1: ≥ 3 nM and < 4 nM; label 2: ≥ 4 nM

Recorded results for 5 molecules are shown here.
O=C(NC1CCNCC1)c1ccn(C2=CC3CN(C2)C(=O)N3OS(=O)(=O)O)n1 (stereo not drawn) | label 2
O=C(Nc1ncns1)c1ccn(C2=CC3CN(C2)C(=O)N3OS(=O)(=O)O)n1 (stereo not drawn) | label 0
CC(=NOCCN)c1ccn(C2=CC3CN(C2)C(=O)N3OS(=O)(=O)O)n1 (mixture of isomers) | label 0
NCCc1cnn(C2=CC3CN(C2)C(=O)N3OS(=O)(=O)O)c1 (stereo not drawn) | label 2
O=C(NCCN1CCOCC1)c1ccn(C2=CC3CN(C2)C(=O)N3OS(=O)(=O)O)n1 (stereo not drawn) | label 2

Query block: Assign a bin to NC(=O)c1cnn(C2=CC3CN(C2)C(=O)N3OS(=O)(=O)[O-])c1.[Na+] (stereo not drawn)
Result block: label 2

Query block: Please let me know in which category the item O=C(c1ccn(C2=CC3CN(C2)C(=O)N3OS(=O)(=O)[O-])n1)N1CCOCC1.[Na+] (stereo not drawn) [Example 31, sulfate] belongs.
Result block: label 2

Query block: Band of O=C1N2CC(n3cc(C(F)(F)F)cn3)=CC(C2)N1OS(=O)(=O)[O-].[Na+] (stereo not drawn) ?
Result block: label 0

* * *

Below are molecules with their pIC50 as measured on UniProt:P62593.
Scale note: pIC50 = -log10(concentration in M).

Query block: Identify pIC50 associated with the molecule O=C1N2CC(n3ccc(F)n3)=CC(C2)N1OS(=O)(=O)[O-].[Na+] (stereo not drawn)
Result block: 9.37

Query block: Output pIC50 of O=C(c1ccn(C2=CC3CN(C2)C(=O)N3OS(=O)(=O)[O-])n1)N1CCOCC1.[Na+] (stereo not drawn) [Example 31, sulfate]
Result block: 8.89

Query block: Consider the molecule COc1cnn(C2=CC3CN(C2)C(=O)N3OS(=O)(=O)[O-])c1.[Na+] (stereo not drawn) . State its measured pIC50.
Result block: 9.39

Query block: Quickly give me recorded pIC50 for O=C1N2CC(n3cc(CNCCO)nn3)=CC(C2)N1OS(=O)(=O)O (stereo not drawn)
Result block: 8.92

Query block: Supply recorded pIC50 for NC(=O)CONC(=O)c1ccn(C2=CC3CN(C2)C(=O)N3OS(=O)(=O)[O-])n1.[Na+] (stereo not drawn) here.
Result block: 8.72

Query block: For the molecule O=C1N2CC(n3cc(CO)nn3)=CC(C2)N1OS(=O)(=O)O (stereo not drawn) , give its measured pIC50 value.
Result block: 9.28

* * *

# systemName: UniProt P13661
# protocolConditions: read-out: IC50 β-lactamase OXA-1; class (D); nitrocefin 200 μM, 30-min pre-incubation, enzyme 0.2 nM
recordedMetric: IC50 (nM)
All answers are understood in nM, so give the number only.

O=C([O-])CCc1cn(C2=CC3CN(C2)C(=O)N3OS(=O)(=O)[O-])nn1.[Na+].[Na+] (stereo not shown) | 53

Query block: Give the measured IC50 for C/C(=N/O)c1cnn(C2=CC3CN(C2)C(=O)N3OS(=O)(=O)[O-])c1.[Na+] (stereo not shown)
Result block: 150

Query block: Kindly indicate its recorded IC50. Item: O=C1N2CC(n3ccc(-c4ncco4)n3)=CC(C2)N1OS(=O)(=O)[O-].[Na+] (stereo not shown)
Result block: 64

Query block: Given O=C1N2CC(n3ccnn3)=CC(C2)N1OS(=O)(=O)[O-].[Na+] (stereo not shown) , respond with its IC50.
Result block: 58

Hey, just so you know, these numbers are from patent US10722520B2.
